Source: patent US20210087281A1

molecular target: native mouse MET on living cells (mouse, UniProt P16056 25-1379); assay: cell-based or functional assay
Some binders, each annotated with its measured branches per spheroid, MLP29 cells, 2.5 nM.
The number alone won't do; follow it with the unit.

Solved cases below.
| BINDER | VAL |
| --- | --- |
| 71G2 chimeric llama-human IgG1 mAb (antibody, V domains shown, llama VH on human IgG1 CH1-CH2-CH3, llama VL on human lambda CL) VH: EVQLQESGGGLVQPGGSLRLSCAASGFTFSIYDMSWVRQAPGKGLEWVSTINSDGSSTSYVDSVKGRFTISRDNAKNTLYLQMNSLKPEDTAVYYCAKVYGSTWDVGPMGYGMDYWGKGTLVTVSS VL: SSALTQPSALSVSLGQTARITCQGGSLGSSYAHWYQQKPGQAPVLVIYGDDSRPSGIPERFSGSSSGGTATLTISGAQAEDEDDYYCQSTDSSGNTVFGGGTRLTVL | 46.3 branches |
| 71G12 chimeric llama-human IgG1 mAb (antibody, V domains shown, llama VH on human IgG1 CH1-CH2-CH3, llama VL on human kappa CL) VH: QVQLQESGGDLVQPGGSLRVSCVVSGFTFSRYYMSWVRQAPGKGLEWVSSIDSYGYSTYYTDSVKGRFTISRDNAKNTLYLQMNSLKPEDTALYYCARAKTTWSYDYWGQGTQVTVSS VL: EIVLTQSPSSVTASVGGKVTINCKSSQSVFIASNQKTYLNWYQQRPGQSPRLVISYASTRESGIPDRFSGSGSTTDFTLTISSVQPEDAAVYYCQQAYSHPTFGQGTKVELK | 14.7 branches |

Switching to the query record.
// branches per spheroid, MLP29 cells, 2.5 nM lookup, key: 74C8 chimeric llama-human IgG1 mAb (antibody, V domains shown, llama VH on human IgG1 CH1-CH2-CH3, llama VL on human lambda CL) VH: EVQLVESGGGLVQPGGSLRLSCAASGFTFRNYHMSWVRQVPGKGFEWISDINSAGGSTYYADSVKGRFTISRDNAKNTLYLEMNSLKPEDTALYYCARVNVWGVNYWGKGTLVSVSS VL: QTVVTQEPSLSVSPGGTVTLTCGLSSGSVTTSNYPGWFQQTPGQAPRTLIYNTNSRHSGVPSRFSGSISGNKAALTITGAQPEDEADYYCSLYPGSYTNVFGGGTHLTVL
15.3 branches
